Assay: S. cerevisiae growth modulation with rapamycin, primary screen, strain BY4716, OD600, 96 h (AID 1091); note: test concentration not given here
Details: higher = more signal, called active from +8 up or from −8 down
Active and inactive are the calls of the source.
PROPERTY: z-score

- C=C(COC)/C(=C/C[C@H](OC(C)=O)c1ccc(CO)o1)c1cc(C(=O)OC)ccc1OC: 0.0604 (inactive)
- Cc1ccc(S[C@]2(C(=O)NCCCN(C)C)CC(=O)N(Cc3cc(C(F)(F)F)cc(C(F)(F)F)c3)[C@@H]2c2ccc(CO)cc2I)cc1: 1.03 (inactive)
- O=C(NCCN1CCOCC1)[C@@H]1c2ccccc2C(=O)N(C2CCCCC2)[C@H]1c1ccc(CO)cc1: 0.0989 (inactive)
- CC(=O)n1cc(C(O)C2C=CC3C(=O)N(c4ccccc4)C(=O)C3N2Nc2ccc([N+](=O)[O-])cc2)c2ccccc21 (centres undefined): 2.05 (inactive)

====

Entries and their measured composite z-score follow.
Experiment: anti-His antibody binders, primary screen, artefact control for SMM control protein annotation, biochemical, small-molecule microarray, 635 nm fluorescence (AID 1128);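 note: score merges feature fluorescence with signal-to-noise for each printed compound spot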
Settings: anti-His Alexa647 antibody binding, higher = more signal
PROPERTY: composite z-score

- O=C(NC1CC1)[C@@H]1c2ccccc2C(=O)N(Cc2ccccc2Cl)[C@H]1c1ccc(CO)cc1: 3.06
- CN1C(=O)C2C=CC(C(O)c3ccccc3)N(N(c3ccccc3)c3ccccc3)C2C1=O (configuration not stated): 1.95
- C=C(C(=O)CC[C@@H](OC(=O)c1cccnc1)c1ccccc1OCCO)C(C)C: -0.242
- CCOC(=O)C[C@H]1[C@H](OC(=O)c2ccccc2-c2ccccc2)[C@@H](NC(=O)CC(C)C)c2cc(OCCCO)ccc2N1C(=O)Cc1ccc(OC)cc1: -0.272
- COCCOC(=O)N1C(=O)[C@@]2(c3ccccc31)[C@H](c1ccccc1OCCO)N1[C@H](c3ccccc3)[C@H](c3ccccc3)OC(=O)[C@H]1[C@@H]2C(=O)N1CCN(c2ncccn2)CC1: 1.22
- COc1ccc([Si](C)(C)[C@H]2[C@H](CC(=O)N3Cc4ccccc4C[C@H]3CO)O[C@@]3(C(=O)N(Cc4cccc(N5CCC5=O)c4)c4ccccc43)[C@@H]2C)cc1: 0.322
- COc1ccc(CCNC(=O)[C@@]2(Sc3ccc(C)cc3)CC(=O)N(C3Cc4ccccc4C3)[C@@H]2c2ccc(CO)cc2I)cc1: 1.13

====

In this section, each of the compounds is paired with its reported z-score.
Assay: P. aeruginosa biofilm formation inhibitors, primary screen, PAO1 strain, BacTiter-Glo luminescence, LB-PBS (AID 1144)
Details: 12 h, higher = more signal
Calls of active or inactive are those of the source. No rule for the calls is given here.
PROPERTY: z-score

- C=CCOC(=O)[C@H]1[C@@H]2C(=O)O[C@@H](c3ccccc3)[C@@H](c3ccccc3)N2[C@@H](c2ccc(OCCOC(=O)[C@H]3C[C@H]4C(=O)N[C@@H](CCCCNC(C)=O)C(=O)N4[C@H]3c3cccc(OCCO)c3)cc2)[C@]12C(=O)Nc1ccccc12: -0.292 (inactive)
- C=CCC(OC(C)=O)[C@@H]1[C@@H](N(Cc2ccc(-c3ccccc3)cc2)C(=O)c2ccc(-c3ccccc3)cc2)c2cc(OCCCO)ccc2N1C(=O)Cc1ccc2ccccc2c1 (stereo partly drawn): -0.0138 (inactive)
- COc1cc2c(cc1OC)CN(C(=O)[C@H]1[C@@H]3C(=O)O[C@@H](c4ccccc4)[C@@H](c4ccccc4)N3[C@@H](c3ccc(O)cc3)[C@]13C(=O)Nc1ccc(C#CCCO)cc13)CC2: -0.827 (inactive)
